Experiment: recombinant UMI read abundance after kanamycin selection (control-corrected) (log10(CPM+1)); higher = more efficient recombination; extreme values may be limits of the assay; sequences stand for … in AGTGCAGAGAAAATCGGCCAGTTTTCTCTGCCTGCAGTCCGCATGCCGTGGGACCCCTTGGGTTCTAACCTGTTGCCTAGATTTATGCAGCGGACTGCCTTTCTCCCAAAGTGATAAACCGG…AGGTTGGTTTCACT; site = the 11-nt donor;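 also: IS621 bridge recombinase in Escherichia coli cells against a fixed T5 target plasmid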
Decision: recombinant UMI read abundance (log10) compared against 0.01; not below it gives 1.0, below it gives 0.0.

For orientation, consider the following solved cases.
INSERT INTO measurements (entry_sequence, group_label) VALUES
  ('GCTAATGCATGGACCGGTTTTCCCGGTAATCCGTATTTGCC (site GCTAATGCTGG)', 0.0),
  ('GGATAGACATGGACCGGTTTTCCCGGTAATCCGTATTTGAC (site GGATAGACTGG)', 1.0),
  ('CAAGTCCCATGGACCGGTTTTCCCGGTAATCCGTATTTGCT (site CAAGTCCCTAG)', 1.0),
  ('GACCAACCATGGACCGGTTTTCCCGGTAATCCGTATTTGGT (site GACCAACCTAC)', 1.0),
  ('GGATAGACATGGACCGGTTTTCCCGGTAATCCGTATTTGCC (site GCATAGACTGG)', 1.0);

Q: Does the reported recombinant UMI read abundance (log10) for TATTTGGCATGGACCGGTTTTCCCGGTAATCCGTATTTGTG (site TTTTTGGCTCA) fall at or above the 0.01 mark?
Result: 1.0

Q: Does the reported recombinant UMI read abundance (log10) for CCCAAATCATGGACCGGTTTTCCCGGTAATCCGTATTTGTC (site CCCACATCTGA) fall at or above the 0.01 mark?
Result: 0.0

Q: Does the reported recombinant UMI read abundance (log10) for ATGTAGGCATGGACCGGTTTTCCCGGTAATCCGTATTTGGC (site CTGTAGGCTGC) fall at or above the 0.01 mark?
Result: 1.0

Q: Does the reported recombinant UMI read abundance (log10) for CGCTTGGCATGGACCGGTTTTCCCGGTAATCCGTATTTGCT (site CGGTTGGCTAG) fall at or above the 0.01 mark?
Result: 0.0

Q: Does the reported recombinant UMI read abundance (log10) for GACAAATCATGGACCGGTTTTCCCGGTAATCCGTATTTGGT (site GACAAATCTAC) fall at or above the 0.01 mark?
Result: 1.0

Q: Does the reported recombinant UMI read abundance (log10) for TGCTAGGCATGGACCGGTTTTCCCGGTAATCCGTATTTGGT (site TGCTAGGCTAG) fall at or above the 0.01 mark?
Result: 1.0

###

Assay: recombinant UMI read abundance after kanamycin selection (control-corrected) (log10(CPM+1)); higher = more efficient recombination; extreme values may be limits of the assay; sequences stand for … in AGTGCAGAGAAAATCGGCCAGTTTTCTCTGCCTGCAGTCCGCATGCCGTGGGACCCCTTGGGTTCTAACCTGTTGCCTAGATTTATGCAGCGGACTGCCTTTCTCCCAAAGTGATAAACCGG…AGGTTGGTTTCACT; site = the 11-nt donor
Can you tell me recombinant UMI read abundance (log10) for the items I'm about to list?
Give bare numbers.

INSERT INTO measurements (entry_sequence, test_readout, reading) VALUES
  ('TGGCCGGCATGGACCGGTTTTCCCGGTAATCCGTATTTGGC (site TGGCTGGCTGC)', 'recombinant UMI read abundance (log10)', 0);

Please state, for each entry, its recorded recombinant UMI read abundance (log10).
1. CCCGAGCCATGGACCGGTTTTCCCGGTAATCCGTATTTGCC (site CCCCAGCCTGG)
2. CGCTAGGCATGGACCGGTTTTCCCGGTAATCCGTATTTGGT (site TGCTAGGCTAC)
3. TAGTATACATGGACCGGTTTTCCCGGTAATCCGTATTTGCA (site TAGAATACTTG)
4. TGCTAGTCATGGACCGGTTTTCCCGGTAATCCGTATTTGGT (site TGCTAGACTAC)
5. TTAGCTGCATGGACCGGTTTTCCCGGTAATCCGTATTTGAG (site TTAGCTGCTCT)

Result:
1: 0; 2: 0.0198; 3: 1.23; 4: 0.00505; 5: 0.839

###

Assay: recombinant UMI read abundance after kanamycin selection (control-corrected) (log10(CPM+1)); higher = more efficient recombination; extreme values may be limits of the assay; sequences stand for … in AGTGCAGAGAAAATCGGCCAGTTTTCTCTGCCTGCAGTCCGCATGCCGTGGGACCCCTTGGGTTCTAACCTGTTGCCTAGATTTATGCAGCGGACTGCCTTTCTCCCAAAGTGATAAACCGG…AGGTTGGTTTCACT; site = the 11-nt donor
Can you tell me recombinant UMI read abundance (log10) for the items I'm about to list?

INSERT INTO measurements (entry_sequence, reading) VALUES
  ('GTAGGGACATGGACCGGTTTTCCCGGTAATCCGTATTTGAC (site GTAGGGACTGT)', 2.63),
  ('TAGCCTTCATGGACCGGTTTTCCCGGTAATCCGTATTTGGT (site TAGCCTTCTAT)', 0.017),
  ('AGATCAGCATGGACCGGTTTTCCCGGTAATCCGTATTTGGG (site AGCTCAGCTCC)', 0.00476);

Now look at this entry.
Q: Using the record for CAATGTTCATGGACCGGTTTTCCCGGTAATCCGTATTTGAA (site CAATGGTCTTT) , report its recombinant UMI read abundance (log10).
Result: 0.0106

###

Test: recombinant UMI read abundance after kanamycin selection (control-corrected) (log10(CPM+1)); higher = more efficient recombination; extreme values may be limits of the assay; sequences stand for … in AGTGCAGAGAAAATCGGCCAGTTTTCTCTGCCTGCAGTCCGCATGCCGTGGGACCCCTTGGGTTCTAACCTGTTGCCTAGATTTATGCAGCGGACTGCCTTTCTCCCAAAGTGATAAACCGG…AGGTTGGTTTCACT; site = the 11-nt donor
TEST READOUT: recombinant UMI read abundance (log10)
Numbers only.

INSERT INTO assay_data (entry_sequence, reading) VALUES
  ('CGCTCGACATGGACCGGTTTTCCCGGTAATCCGTATTTGTT (site CGCTCGACTAA)', 0),
  ('TCATACTCATGGACCGGTTTTCCCGGTAATCCGTATTTGCA (site GCATACTCTTG)', 1.3),
  ('GTATGCACATGGACCGGTTTTCCCGGTAATCCGTATTTGTA (site GTATGCACTTA)', 2.07),
  ('AGAAAGTCATGGACCGGTTTTCCCGGTAATCCGTATTTGCT (site AGAAAGGCTAG)', 0),
  ('CGATAGTCATGGACCGGTTTTCCCGGTAATCCGTATTTGCC (site CGATAGTCTGG)', 2.66),
  ('AGCCTTTCATGGACCGGTTTTCCCGGTAATCCGTATTTGAT (site AGCCTTTCTCT)', 0),
  ('AGGGTGACATGGACCGGTTTTCCCGGTAATCCGTATTTGCA (site AGGGTGACTTG)', 2.63),
  ('TTAGCTTCATGGACCGGTTTTCCCGGTAATCCGTATTTGTG (site TTAGCTCCTCA)', 0.012);

Please state, for each entry, its recorded recombinant UMI read abundance (log10).
1. AGGTACCCATGGACCGGTTTTCCCGGTAATCCGTATTTGTG (site AGGTACCCTCA)
2. AGTTAGACATGGACCGGTTTTCCCGGTAATCCGTATTTGCA (site AGGAAGACTTG)
3. CTAGTATCATGGACCGGTTTTCCCGGTAATCCGTATTTGAA (site CTAGTATCTTT)
4. CGATCTACATGGACCGGTTTTCCCGGTAATCCGTATTTGTT (site CGATCTACTAA)
5. ACACATCCATGGACCGGTTTTCCCGGTAATCCGTATTTGAC (site CCACATCCTGT)
6. TAAACCGCATGGACCGGTTTTCCCGGTAATCCGTATTTGCG (site TAAACCGCTCG)

Result:
0.0796
1.51
2.92
0.246
0.581
1.29

###

Experiment: recombinant UMI read abundance after kanamycin selection (control-corrected) (log10(CPM+1)); higher = more efficient recombination; extreme values may be limits of the assay; sequences stand for … in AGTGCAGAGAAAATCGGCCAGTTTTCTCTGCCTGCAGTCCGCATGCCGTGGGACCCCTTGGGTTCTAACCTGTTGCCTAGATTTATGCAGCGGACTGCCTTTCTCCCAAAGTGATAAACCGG…AGGTTGGTTTCACT; site = the 11-nt donor
Decision: recombinant UMI read abundance (log10) compared against 0.7; not below it gives t, below it gives f.

For orientation, consider the following solved cases.
INSERT INTO measurements (entry_sequence, group_label) VALUES
  ('GTCTACACATGGACCGGTTTTCCCGGTAATCCGTATTTGCT (site CTCTACACTAG)', 't'),
  ('ATGAGGACATGGACCGGTTTTCCCGGTAATCCGTATTTGGG (site ATGAGGACTCC)', 'f'),
  ('GCGCTCTCATGGACCGGTTTTCCCGGTAATCCGTATTTGCT (site GCGCTCTCTAG)', 't'),
  ('ATTTCAACATGGACCGGTTTTCCCGGTAATCCGTATTTGAC (site ATTTCAACTGT)', 'f'),
  ('TCTGTGGCATGGACCGGTTTTCCCGGTAATCCGTATTTGAC (site TCTGTGGCTGT)', 'f');

Q: Does the reported recombinant UMI read abundance (log10) for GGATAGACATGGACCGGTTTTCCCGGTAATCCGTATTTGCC (site GGATAGTCTGG) fall at or above the 0.7 mark?
Result: t

Q: Does the reported recombinant UMI read abundance (log10) for GGGGCACCATGGACCGGTTTTCCCGGTAATCCGTATTTGCA (site GGGGCGCCTTG) fall at or above the 0.7 mark?
Result: f

Q: Does the reported recombinant UMI read abundance (log10) for GATTATCCATGGACCGGTTTTCCCGGTAATCCGTATTTGCA (site GATTATCCTGG) fall at or above the 0.7 mark?
Result: f
